Procedure text: Cytotoxicity assay, WST-8
Study conditions: human, HepG2 cells, CC50 (μg/mL), HepG2, 48 hours, Table 1
Endpoint label: CC50 at 48 h (µM)
# unit: µM | format: bare number

{"columns": ["Compound", "Obs value"],
 "data": [
  ["CCCCCCCCCCC1CC(O)=C(C(C)=O)C(=O)O1 (centres unmarked) [Ex. 11]", 40],
  ["CCCCCCCCC1CC(O)=C(C(=O)CCC)C(=O)O1 (centres unmarked) [Ex. 13]", 30],
  ["CCCCCCCCCC1CC(O)=C(C(C)=O)C(=O)O1 (centres unmarked) [Ex. 9]", 71],
  ["CCCCCCCCC1CC(O)=C(C(=O)CC)C(=O)O1 (centres unmarked) [Ex. 6]", 55],
  ["CCCCCCCCCC1CC(O)=C(C(=O)CCCC)C(=O)O1 (centres unmarked) [Ex. 8]", 36]
]}

Q: Return the recorded CC50 at 48 h value; entry: CCCCCCCCCC1CC(O)=C(C(=O)CC)C(=O)O1 (centres unmarked) [Ex. 5]
A: 50

Q: Return the recorded CC50 at 48 h value; entry: CCCCCCCCCC1CC(O)=C(C(=O)CC2CCCCC2)C(=O)O1 (centres unmarked) [Ex. 14]
A: 14

Q: Return the recorded CC50 at 48 h value; entry: CCCCCCCCCC1CC(O)=C(C(=O)CCCCC)C(=O)O1 (centres unmarked) [Ex. 18]
A: 15

Q: Return the recorded CC50 at 48 h value; entry: CCCCCCCCCC1CC(O)=C(C(=O)CC(C)C)C(=O)O1 (centres unmarked) [Ex. 15]
A: 21

Q: Return the recorded CC50 at 48 h value; entry: CCCCCCCCCCC1CC(O)=C(C(=O)CCC)C(=O)O1 (centres unmarked) [Ex. 12]
A: 25

Q: Return the recorded CC50 at 48 h value; entry: CCCCCCCCCCCC1CC(O)=C(C(=O)CCCC)C(=O)O1 (centres unmarked) [Ex. 17]
A: 12

Q: Return the recorded CC50 at 48 h value; entry: CCCCCCCCCCC1CC(O)=C(C(=O)CCCC)C(=O)O1 (centres unmarked) [Ex. 3]
A: 13

Q: Return the recorded CC50 at 48 h value; entry: CCCC(=O)C1=C(O)CC(CCCCCCCOC)OC1=O (centres unmarked) [Ex. 20]
A: 80

Q: Return the recorded CC50 at 48 h value; entry: CCCCCCCCC1CC(O)=C(C(C)=O)C(=O)O1 (centres unmarked) [Ex. 7]
A: 65
